Sourced from ChEMBL document CHEMBL1137364

target: P2Y purinoceptor 2 (Homo sapiens, UniProt P41231); assay: Agonist activity at human P2Y2 receptor expressed in 1321N1 cells assessed as IP accumulation by SPA at 100 uM; assay type: functional, cell-based
Sequence (P41231 whole entry): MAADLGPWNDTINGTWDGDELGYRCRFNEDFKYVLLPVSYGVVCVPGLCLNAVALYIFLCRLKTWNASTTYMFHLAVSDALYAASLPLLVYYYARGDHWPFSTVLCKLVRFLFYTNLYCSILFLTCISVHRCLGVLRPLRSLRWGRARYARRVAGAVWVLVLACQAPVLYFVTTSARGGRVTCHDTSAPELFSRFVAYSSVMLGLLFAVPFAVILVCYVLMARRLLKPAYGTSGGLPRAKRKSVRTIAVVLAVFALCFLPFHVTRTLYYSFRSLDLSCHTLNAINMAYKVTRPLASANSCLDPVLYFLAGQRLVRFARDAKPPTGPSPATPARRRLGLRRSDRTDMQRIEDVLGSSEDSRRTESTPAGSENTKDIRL
endpoint name: Activity (%)
Give the quantity in %, number only.

Quick check: Activity of `Cc1cc(=O)n([C@@H]2O[C@H](COP(=O)(O)OP(=O)(O)OP(=O)(O)O)[C@@H](O)[C@H]2O)c(=O)[nH]1` ? 93

Moving on to `CCCc1cc(=O)n([C@@H]2O[C@H](COP(=O)(O)OP(=O)(O)OP(=O)(O)O)[C@@H](O)[C@H]2O)c(=O)[nH]1` 83

// repeat for `O=c1[nH]c(=O)n([C@@H]2O[C@H](COP(=O)(O)O)[C@@H](O)[C@H]2O)cc1Br` and report 70

// next record `O=c1cc(O)n([C@@H]2O[C@H](COP(=O)(O)OP(=O)(O)OP(=O)(O)O)[C@@H](O)[C@H]2O)c(=O)[nH]1` 80

Now give it for `O=c1ccn([C@@H]2O[C@H](COP(=O)(O)O)[C@@H](O)[C@H]2O)c(=S)[nH]1` too. 51

Then `CCCc1cc(=O)n([C@@H]2O[C@H](COP(=O)(O)OP(=O)(O)OP(=O)(O)O)[C@H]3OP(=O)(O)O[C@H]32)c(=O)[nH]1` ? 69

Check `Cc1cc(=O)n([C@@H]2O[C@H](COP(=O)(O)O)[C@@H](O)[C@H]2O)c(=O)[nH]1` too. 17

And `Cn1c(=O)ccn([C@@H]2O[C@H](COP(=O)(O)OP(=O)(O)O)[C@@H](O)[C@H]2O)c1=O` ? 99

Further, for `O=C(Cn1c(=O)ccn([C@@H]2O[C@H](COP(=O)(O)O)[C@@H](O)[C@H]2O)c1=O)c1ccccc1` ? 9

Param item: `O=c1cc(O)n([C@@H]2O[C@H](COP(=O)(O)O)[C@@H](O)[C@H]2O)c(=O)[nH]1` 11

Same for `O=C(Cn1c(=O)ccn([C@@H]2O[C@H](COP(=O)(O)OP(=O)(O)O)[C@@H](O)[C@H]2O)c1=O)c1ccccc1` 85

* * *

molecular target: P2Y purinoceptor 6 (Homo sapiens); experiment: Agonist activity at human P2Y6 receptor expressed in 1321N1 cells assessed as IP accumulation by SPA at 100 uM; assay type: functional, cell-based
Sequence (Q15077 whole entry): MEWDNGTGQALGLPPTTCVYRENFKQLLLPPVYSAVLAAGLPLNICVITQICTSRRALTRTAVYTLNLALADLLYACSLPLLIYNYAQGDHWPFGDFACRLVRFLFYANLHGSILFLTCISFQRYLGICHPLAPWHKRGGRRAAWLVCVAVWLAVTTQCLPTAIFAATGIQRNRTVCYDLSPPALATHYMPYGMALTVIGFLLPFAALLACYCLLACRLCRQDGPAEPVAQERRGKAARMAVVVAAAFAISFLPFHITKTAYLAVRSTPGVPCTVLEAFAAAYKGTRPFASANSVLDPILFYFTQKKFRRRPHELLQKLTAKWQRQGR
Where Activity equals or exceeds 20%, the correct label is TRUE; where it does not, the label is FALSE.

Tell me whether Activity is at least 20% here: `CCCc1cc(=O)n([C@@H]2O[C@H](COP(=O)(O)OP(=O)(O)OP(=O)(O)O)[C@@H](O)[C@H]2O)c(=O)[nH]1` TRUE

Further, for `O=C(Cn1c(=O)ccn([C@@H]2O[C@H](COP(=O)(O)O)[C@@H](O)[C@H]2O)c1=O)c1ccccc1` ? FALSE

Same read-out for `Cn1c(=O)ccn([C@@H]2O[C@H](COP(=O)(O)O)[C@@H](O)[C@H]2O)c1=O` ? TRUE

Moving on to `CCCc1cc(=O)n([C@@H]2O[C@H](COP(=O)(O)O)[C@@H](O)[C@H]2O)c(=O)[nH]1` TRUE

Now consider `O=c1ccn([C@@H]2O[C@H](COP(=O)(O)O)[C@@H](O)[C@H]2O)c(=S)[nH]1` . FALSE

`Cc1cc(=O)n([C@@H]2O[C@H](COP(=O)(O)OP(=O)(O)OP(=O)(O)O)[C@@H](O)[C@H]2O)c(=O)[nH]1` ? TRUE

Likewise for `O=C(Cn1c(=O)ccn([C@@H]2O[C@H](COP(=O)(O)OP(=O)(O)OP(=O)(O)O)[C@@H](O)[C@H]2OP(=O)(O)O)c1=O)c1ccccc1` ? TRUE
